Test: reversal of MRP1-mediated doxorubicin resistance, pilot screen, H69AR cells, doxorubicin co-treatment (AID 601)
Details: H69AR cells + 2 uM doxorubicin, CellTiter-Glo, 72 h; measured here: viability with 2 uM doxorubicin; at 10 µM; stronger effect = lower value
observed.property: viability (%)
Quick note: give the figure in %, leave out the unit.

**Query** Provide viability value for the following compound: Cc1ccc(-c2ccc(=O)n(CC(=O)NCCCN3CCCCC3C)n2)cc1 (configuration not stated)
**Result** 95.4

**Query** Provide viability value for the following compound: CC(=O)NC(C)C(=O)OCc1ccc(Cl)cc1Cl (configuration not stated)
**Result** 95.2

**Query** Provide viability value for the following compound: CC(=O)Nc1ccc(NC(=O)C(C)Oc2ccccc2F)cc1 (configuration not stated)
**Result** 84

**Query** Provide viability value for the following compound: CCCCNC(=O)NS(=O)(=O)c1ccc(C)cc1
**Result** 101

**Query** Provide viability value for the following compound: O=C(CN1C(=O)c2ccccc2S1(=O)=O)Nc1ccc(S(=O)(=O)N2CCCCCC2)cc1
**Result** 89.3

**Query** Provide viability value for the following compound: CC(CN1CCCCC1)OC(=O)c1ccc2c(c1)OCO2 (configuration not stated)
**Result** 86.8

**Query** Provide viability value for the following compound: CCCC(=O)Nc1ccc(OCC(=O)OC)cc1
**Result** 93.6

**Query** Provide viability value for the following compound: COc1ccccc1NC(=O)NC(N)=O
**Result** 94.5

**Query** Provide viability value for the following compound: Clc1ccccc1CN1CCc2sccc2C1
**Result** 79.1

**Query** Provide viability value for the following compound: C[N+](C)(C)CCOP(=O)([O-])OC[C@H](O)CO
**Result** 95

**Query** Provide viability value for the following compound: COCc1[nH]nc2c1C(C1C=CCCC1)C(C#N)=C(N)O2 (configuration not stated)
**Result** 98.8

**Query** Provide viability value for the following compound: O=C(c1ccco1)N1CCN(c2nc(C(F)(F)F)nc3c2nnn3Cc2ccccc2)CC1
**Result** 75.8

**Query** Provide viability value for the following compound: N=c1c(C(=O)NCc2ccccc2)cc2c(=O)n3ccccc3nc2n1Cc1ccco1
**Result** 65.5

**Query** Provide viability value for the following compound: c1cncc(-c2nc3c4ccccc4nc(N4CCC(N5CCCCC5)CC4)n3n2)c1
**Result** 81.2

**Query** Provide viability value for the following compound: CC(=O)N1CN(C2CCCC2)Cc2c1sc1c2CCCC1
**Result** 117

**Query** Provide viability value for the following compound: Cc1noc(NS(=O)(=O)c2ccc(NC(=O)CCC3CCCC3)cc2)c1C
**Result** 82.4

**Query** Provide viability value for the following compound: CCCOc1ccc2nc(NC(=O)OC)[nH]c2c1
**Result** 57.3

**Query** Provide viability value for the following compound: O=C(CCCOc1ccccc1)N1CCN(c2ccccn2)CC1
**Result** 97.8

**Query** Provide viability value for the following compound: O=C(O)CCC(=O)Nc1nc(-c2ccccc2)cs1
**Result** 96.1

**Query** Provide viability value for the following compound: CCSc1nc2ccccc2n1CCC(=O)O
**Result** 93.4

**Query** Provide viability value for the following compound: CC(=O)Nc1nc(C)c(-c2csc(Nc3ccc(O)cc3)n2)s1
**Result** 18.6

**Query** Provide viability value for the following compound: C=CCN1C(=O)CS/C1=N/c1nccs1
**Result** 97

**Query** Provide viability value for the following compound: Cc1ccc(Cn2ccc(NC(=O)c3noc4c3CCCC4)n2)cc1
**Result** 88.6

**Query** Provide viability value for the following compound: O=c1cc(CSc2nnc(COc3ccc(Cl)cc3)o2)c2ccccc2[nH]1
**Result** 92.9

**Query** Provide viability value for the following compound: CC1CCN(C(=O)c2cc(-c3ccc(Cl)c(Cl)c3)on2)CC1
**Result** 80.2

**Query** Provide viability value for the following compound: CCOC(=O)Cc1csc(NC(=O)CSc2nnc(C(C)C)n2CC)n1
**Result** 88.2

**Query** Provide viability value for the following compound: CCc1nnc(NC(=O)c2ccc(S(=O)(=O)N(CC(C)C)CC(C)C)cc2)o1
**Result** 61.4

**Query** Provide viability value for the following compound: COc1cccc(N2C(=O)N(c3ccccc3Cl)C3CS(=O)(=O)CC32)c1 (configuration not stated)
**Result** 88.7

**Query** Provide viability value for the following compound: O=C(CCn1c(=O)oc2ccccc21)N1CCCCCC1
**Result** 93.3

**Query** Provide viability value for the following compound: CCCCC(=O)Nc1ccc(NC(=O)C2CC2)nc1
**Result** 106

**Query** Provide viability value for the following compound: COc1ccc(-n2ncc3c(NCc4ccc5c(c4)OCO5)ncnc32)cc1
**Result** 17.4

**Query** Provide viability value for the following compound: COc1cccc(-n2c(C)nc3c(cnn3-c3ccc(Cl)cc3)c2=O)c1
**Result** 78
